System: M19-MEL
procedure text: NCI tumour cell line growth inhibition, 48 h
The source made the active and inactive calls. Rule as the data show it: active = GI50 up to about 1.1 µM and inactive = higher.
Labels: TRUE for active, FALSE for inactive

>  <compound>
COC(=O)C(Cc1nc2ccc(Cl)cc2nc1O)/C(=N/O)C(=O)Nc1cccc(Cl)c1C (stereo unspecified)

>  <classification>
FALSE

$$$$
>  <compound>
CC1=CC(=O)NP(=O)(Oc2ccc(C)cc2)N1 (stereo unspecified)

>  <classification>
FALSE

$$$$
>  <compound>
COC(c1ccccc1)C(c1ccccc1)N1CCOCC1 (stereo unspecified)

>  <classification>
FALSE

$$$$
>  <compound>
COc1cccc(N[C@@H]2c3cc4c(cc3C(c3cc(OC)c(O)c(OC)c3)[C@H]3C(=O)OCC32)OCO4)c1 (stereo partly specified)

>  <classification>
TRUE

$$$$
>  <compound>
Cc1ccc(Sc2ccccc2[N+](=O)[O-])cc1

>  <classification>
FALSE

$$$$
>  <compound>
COc1ccc([C@@H]2OC(=O)C3C2C(=O)O[C@H]3c2ccc(OC)cc2)cc1 (stereo partly specified)

>  <classification>
FALSE

$$$$
>  <compound>
CCOC(=O)CC1=CSC2=NCCN12

>  <classification>
FALSE

$$$$
>  <compound>
CCOc1ccc(NCC(=O)N2CC(=O)Nc3ccccc32)cc1

>  <classification>
FALSE

$$$$
>  <compound>
Cc1ccc(Sc2ccc(C)cc2[N+](=O)[O-])c([N+](=O)[O-])c1

>  <classification>
FALSE

$$$$
>  <compound>
OCC(O)C(OC1OC(CO)C(O)C(O)C1O)c1nn(-c2ccc(F)cc2)c2nc3cc(Cl)c(Cl)cc3cc12 (stereo unspecified)

>  <classification>
FALSE

$$$$
>  <compound>
CCC1(CC)C(=O)NC(=S)N=C1N

>  <classification>
FALSE

$$$$

* * *

Tested on: HOP-92
procedure text: NCI tumour cell line growth inhibition, 48 h
Activity calls are given as the source filed them. No stated cut-off is given here; in the data, active = GI50 up to about 1.1 µM and inactive = higher.
Possible outcomes: true (1) (active), false (0) (inactive)

>  <compound>
COc1ccc(/C(Cl)=C(\C=O)c2ccc(OC)c(OC)c2)cc1OC

>  <classification>
false (0)

$$$$
>  <compound>
Cn1c(=O)n2n(c1=O)[C@@H](c1ccccc1)[C@H]2c1ccccc1

>  <classification>
false (0)

$$$$
>  <compound>
NCCNc1ccc(NCCN)c2c1C(=O)c1c(O)ccc(O)c1C2=O

>  <classification>
true (1)

$$$$
>  <compound>
COc1ccc2c(c1OC)OC[C@@H](C1=CC(=O)C=C(O)C1=O)C2

>  <classification>
false (0)

$$$$
>  <compound>
Oc1cccc2ccc(SSc3ccc4cccc(O)c4n3)nc12

>  <classification>
false (0)

$$$$
>  <compound>
CO/N=C(/C)c1cccc(Nc2nc3ccc(Cl)cc3c3[nH]c4ccccc4c23)c1

>  <classification>
false (0)

$$$$
>  <compound>
CC(C)C1=CC23CCC4C(C)(C(=O)O)CCCC4(C)C2CC1C1C(=O)N(c2ccc(C(=O)O)cc2)C(=O)C13 (stereo not given)

>  <classification>
false (0)

$$$$
>  <compound>
COc1ccc2c(c1)OCCc1cn[nH]c1-2

>  <classification>
false (0)

$$$$
>  <compound>
Nn1c(SCC(=O)NCc2ccccc2)nc2ccccc2c1=O

>  <classification>
false (0)

$$$$
>  <compound>
CC(=O)OCC1OC(N2C(=O)C(=O)c3ccccc32)C(OC(C)=O)C(OC(C)=O)C1OC(C)=O (stereo not given)

>  <classification>
false (0)

$$$$
